// data source = patent US20210340231A1

Target: T1, CTNI quality control recombinant protein (PK2-CTNI-1, 170120, produced by the applicant) (human, UniProt P19429 2-210, limits assumed)
T1 construct: also called cardiac troponin I
T1 sequence (P19429 2-210 limits assumed): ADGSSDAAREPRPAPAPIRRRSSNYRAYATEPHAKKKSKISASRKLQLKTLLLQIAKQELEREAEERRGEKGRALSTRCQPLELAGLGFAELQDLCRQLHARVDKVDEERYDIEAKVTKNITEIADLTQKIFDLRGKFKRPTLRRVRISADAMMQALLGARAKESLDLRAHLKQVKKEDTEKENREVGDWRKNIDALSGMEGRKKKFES
Assay: AMC sensor kinetics, antibody captured, cTnI analyte
Experimental: Using the AMC sensor, the purified antibody was diluted with PBST to 10 μg/ml, and the CTNI quality control recombinant protein (PK2-CTNI-1, 170120, produced by the applicant) was serially diluted with PBST to 400 nmol/ml, 200 nmol/ml, 100 nmol/ml, 50 nmol/ml, 25 nmol/ml, 12.5 nmol/ml, 6.25 nmol/ml, and 0 nmol/ml.
TEST READOUT: koff (s⁻¹)
Unit s⁻¹ implied. Number only.

Example entries and their recorded answers appear below.
Mutation 1-20 (antibody, V domains shown, built as for Mutation 1) VH: EVQLQQSGAELVKPGASVKLSCTASGFNLKDYFMHWMKQRTEQGLDWIGRIDPEDGETKYAPEFQGKATITADTSSNTAYLQLSTLTSEDTAVYYCARYYSSYVPFVYWGQGTLVTASA VL: DVVMTQTPLSLSVSLGDQASISCRSSQSLIYSNRHTYLHWYLQKPGQSPKLLIFQVSNRFSGVPDRFSGSGSGTDFTLKINRVEAEDLGVYFCSQSTHIPFTFGSGTKLEIKR    0.000158
Mutation 1 (antibody, V domains shown, No residue numbers are printed, so each chain is built as FR1-CDR1-FR2-CDR2-FR3-CDR3-FR4-constant) VH: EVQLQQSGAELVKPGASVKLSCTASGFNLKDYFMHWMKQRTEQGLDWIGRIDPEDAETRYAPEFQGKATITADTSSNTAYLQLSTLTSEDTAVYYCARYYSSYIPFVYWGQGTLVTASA VL: DVVMTQTPLSLSVSLGDQASISCRSSQSIIYSNRHTYLHWYLQKPGQSPKLLIFQISNRFSGVPDRFSGSGSGTDFTLKINRVEAEDLGVYFCSQSTHLPFTFGSGTKLEIKR    0.000155

Shift focus to the following entry.
Query: So what's the measured koff for this one? Mutation 1-27 (antibody, V domains shown, built as for Mutation 1) VH: EVQLQQSGAELVKPGASVKLSCTASGFNIKDYYMHWMKQRTEQGLDWIGRIDPEDAETRYAPEFQGKATITADTSSNTAYLQLSTLTSEDTAVYYCARYYSSYIPFVYWGQGTLVTASA VL: DVVMTQTPLSLSVSLGDQASISCRSSQSLIYSNRHTYLHWYLQKPGQSPKLLIFQISNRFSGVPDRFSGSGSGTDFTLKINRVEAEDLGVYFCSQSTHIPYTFGSGTKLEIKR
Reply: 0.000844
